# Assayed system: 12 DB-1
# Test details: CELIA on monoclonal 12 DB-1; coated antigen not given
Where no end group is shown, it is not given here.
Readout: pIC50
Numbers only, as −log10 of the molar value.

Task item: Supply reported pIC50 belonging to this binder: Ac-ISRRLIDRTNANFLC (not fully specified; printed as Ac-25I-S-R-R-L-I-D-R-T-N-A-N-F-L38-C) [GP4]
Reply: 5.70
